# assay-target: UniProtKB P34975
# Sequence (P34975 whole entry): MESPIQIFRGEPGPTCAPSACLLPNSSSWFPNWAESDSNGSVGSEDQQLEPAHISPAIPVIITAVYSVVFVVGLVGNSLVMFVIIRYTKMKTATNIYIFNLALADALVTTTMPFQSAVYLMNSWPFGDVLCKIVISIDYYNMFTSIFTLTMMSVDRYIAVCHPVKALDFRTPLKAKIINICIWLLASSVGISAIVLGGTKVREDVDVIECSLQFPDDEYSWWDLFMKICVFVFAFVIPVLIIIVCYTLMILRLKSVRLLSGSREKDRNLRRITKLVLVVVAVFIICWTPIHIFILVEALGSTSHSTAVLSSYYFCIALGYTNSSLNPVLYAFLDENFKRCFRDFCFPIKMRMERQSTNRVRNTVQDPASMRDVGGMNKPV
# protocol-notes: NIMH-PDSP radioligand binding, KOR
pKi: −log10 of the molar value.
Consider the following compounds and their measured pKi readings.
test-readout: pKi

INSERT INTO results (compound, test_readout, readout_value) VALUES
  ('NC1(c2ccccc2)CC2CCC1C2 (stereo not drawn) [Compound 4a, 2-phenylbicyclo[2.2.1]heptan-2-amine]', 'pKi', '< 5.00'),
  ('NC1(c2ccc(F)cc2)CC2CCC1C2 (stereo not drawn) [Compound 4b]', 'pKi', '< 5.00'),
  ('Fc1ccc(C2(NCCN3CCOCC3)CC3CCC2C3)cc1 (stereo not drawn) [Compound 5d]', 'pKi', '< 5.00');
